These data points were gathered from PubChem BioAssay.

- System: Noggin (protein binding on small-molecule microarray)
- testProtocol: Noggin binders on small-molecule microarray, primary screen, biochemical, 635/667 nm fluorescence (AID 1095);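 also: score merges 667 nm feature fluorescence with signal to noise over triplicate slides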
- setupConditions: 635 nm fluorescence, higher = more signal
Label rule, in plain words: composite z-score of -0.2 and up is Condition met, under -0.2 is Condition not met.

Q) Quick check: does COC(=O)[C@@]1(Cc2ccc(OC)cc2)[C@H]2c3cc(C(=O)N4CCCC4)n(Cc4cccc5ccccc45)c3C[C@H]2CN1C(=O)c1ccccc1 have composite z-score greater than or equal to -0.2?
A) Condition met

Q) Quick check: does COC(=O)[C@@]1(Cc2ccc(F)cc2)[C@H]2c3cc(C(=O)N4CCCC4)n(CCc4ccc(O)c(O)c4)c3C[C@H]2CN1C(=O)c1ccccc1 have composite z-score greater than or equal to -0.2?
A) Condition not met

Q) Quick check: does N#Cc1ccc(C(O)C2C=CC3C(=O)N(c4ccccc4)C(=O)C3N2Nc2ccccc2)cc1 (centres undefined) have composite z-score greater than or equal to -0.2?
A) Condition not met

Q) Quick check: does CC(C)(C)OC(=O)CC[C@@]1(C(=O)NCc2ccccc2)N=C(c2ccc(OCCCO)cc2)O[C@@H]1c1ccccc1N=[N+]=[N-] have composite z-score greater than or equal to -0.2?
A) Condition met

Q) Quick check: does CCCNC(=O)[C@@H]1c2ccccc2C(=O)N(C(C)C)[C@H]1c1ccc(CO)cc1 have composite z-score greater than or equal to -0.2?
A) Condition not met

Q) Quick check: does C[C@@H]1ON(c2ccc(C(=O)OC(C)(C)C)cc2)[C@H](c2ccc(O)cc2)[C@H]1C(=O)N1C(=O)OC[C@H]1Cc1ccccc1 have composite z-score greater than or equal to -0.2?
A) Condition met

Q) Quick check: does CCCCCCCCCCC(O)C1C=CC2C(=O)N(C)C(=O)C2N1NC(=O)OC(C)(C)C (centres undefined) have composite z-score greater than or equal to -0.2?
A) Condition not met

Q) Quick check: does COc1ccc(CCN2C(=O)[C@@]3(Cc4ccccc42)c2ccccc2C(=O)N(Cc2ccccc2OC)[C@H]3c2ccc(CO)cc2)cc1 have composite z-score greater than or equal to -0.2?
A) Condition not met

Q) Quick check: does COCCOC(=O)N1C(=O)[C@@]2(c3cc(C#CC4=CCCCC4)ccc31)[C@H](c1ccccc1OCCO)N1[C@H](c3ccccc3)[C@H](c3ccccc3)OC(=O)[C@H]1[C@@H]2C(=O)Nc1nc2ccccc2s1 have composite z-score greater than or equal to -0.2?
A) Condition met

Q) Quick check: does [N-]=[N+]=NCc1ccccc1C[C@@]1(C(=O)NCc2ccccc2)N=C(c2ccc(OCCCO)cc2)O[C@@H]1c1ccccc1N=[N+]=[N-] have composite z-score greater than or equal to -0.2?
A) Condition not met

Q) Quick check: does COC(=O)c1c(CC[C@@H](CO)NC(=O)N[C@H](Cn2cc(C3(O)CCCCC3)nn2)C(C)C)oc(C(C)=O)c1C(=O)OC have composite z-score greater than or equal to -0.2?
A) Condition met

Q) Quick check: does C=C(C)c1cc2c(c(CCCCCC)n1)[Si](C(C)C)(C(C)C)OC2 have composite z-score greater than or equal to -0.2?
A) Condition not met

Q) Quick check: does C=CCN1C(=O)[C@@]2(O[C@@H](CCn3cc([C@H](O)c4ccccc4)nn3)[C@H]([Si](C)(C)c3ccc(OC)cc3)[C@H]2C)c2cc(N3CCC3=O)ccc21 have composite z-score greater than or equal to -0.2?
A) Condition met

Q) Quick check: does COCCOC(=O)N1C(=O)[C@@]2(c3cc(C#CCCO)ccc31)[C@H](C(=O)Nc1nc3ccccc3s1)[C@H]1C(=O)O[C@H](c3ccccc3)[C@H](c3ccccc3)N1[C@@H]2c1ccccc1OCCO have composite z-score greater than or equal to -0.2?
A) Condition met
